Collected pA2 values appear next to each entry.
Biological target: Adrenergic receptor alpha-1 (Rattus norvegicus, UniProt P15823+P23944+P43140)
Test: Antagonist activity for Alpha-1 adrenergic receptor against norepinephrine in rat vas deferences
Type: functional
Lab note: record just the number, no unit beside it.

{"columns": ["Compound Structure", "Result Value"],
 "data": [
  ["COc1cc2nc(N(C)CCCCCCCCN(C)C(=O)c3ccco3)nc(N)c2cc1OC", 8.1],
  ["COc1cc2nc(NCCNC(=O)c3ccco3)nc(N)c2cc1OC", 8.28],
  ["COc1cc2nc(NCCCCCCCCNC(=O)c3ccco3)nc(N)c2cc1OC", 7.22],
  ["COc1cc2nc(N(C)CCCCCCNC(=O)c3ccco3)nc(N)c2cc1OC", 8.53],
  ["COc1cc2nc(N(C)CCCN(C)C(=O)c3ccco3)nc(N)c2cc1OC", 7.41]
]}

## Input GET /values?readout=pA2&item= COc1cc2nc(N(C)CCNC(=O)c3ccco3)nc(N)c2cc1OC
## Output 8.03

====

Collected Ratio values appear next to each entry.
Target: Adrenergic receptor alpha-1 (Rattus norvegicus) (UniProt P15823+P23944+P43140)
Test: Selectivity ratio is the antilog of the difference between pA2 at alpha-1 and alpha-2 adrenergic receptors

{"columns": ["Compound Structure", "Tested On", "Result Value"],
 "data": [
  ["COc1cc2nc(NCCCCCCNC(=O)c3ccco3)nc(N)c2cc1OC", "Adrenergic receptor alpha-1 (Rattus norvegicus) (UniProt P15823+P23944+P43140)", 2340],
  ["COc1cc2nc(NCCCNC(=O)c3ccco3)nc(N)c2cc1OC", "Adrenergic receptor alpha-1 (Rattus norvegicus) (UniProt P15823+P23944+P43140)", 105],
  ["COc1cc2nc(NCCCCCNC(=O)c3ccco3)nc(N)c2cc1OC", "Adrenergic receptor alpha-1 (Rattus norvegicus) (UniProt P15823+P23944+P43140)", 513]
]}

Field: next compound
## Input GET /values?readout=Ratio&item= COc1cc2nc(NCCCCNC(=O)c3ccco3)nc(N)c2cc1OC
## Output 170

Reference source: ChEMBL document CHEMBL1124337
